experimental_system: SfurOBP11 (Sogatella furcifera, UniProt V5T6E3)
Sequence (V5T6E3 entry or part of it): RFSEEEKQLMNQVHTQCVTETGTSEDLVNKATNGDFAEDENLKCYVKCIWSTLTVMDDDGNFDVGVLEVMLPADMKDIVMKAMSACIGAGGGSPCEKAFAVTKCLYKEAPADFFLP
assay_name: biochemical
Type: binding
test_context: ligand concentration 20, replicate 2
Fluorescence intensity, fluorescence competitive binding assay, OBP11 reference
Form field (numeric): enter value without unit.

These solved cases illustrate the format of a correct answer.
CCCCCC=O | 19749
C=CC(C)(O)CCC=C(C)C (stereo not drawn) | 29263
CC(C)COC(=O)CCCCC(=O)OCC(C)C [DA(diisobutyl adipate)] | 21117
CCCCCCCCCCCCCCCCCC | 24149
CCCCCCCCCCCCO | 19127
O=Cc1ccccc1 | 18414

# context switch: different compound, same Fluorescence intensity, fluorescence competitive binding assay, OBP11
Fluorescence intensity, fluorescence competitive binding assay, OBP11 reported for this compound `CCCCCC(C)=O` : 20028

###

Entries and their measured Fluorescence competitive binding assay, OBP2 (raw fluorescence reading) follow.
experimental_system: SfurOBP2 (Sogatella furcifera, UniProt V5T759)
Sequence (V5T759 entry or part of it): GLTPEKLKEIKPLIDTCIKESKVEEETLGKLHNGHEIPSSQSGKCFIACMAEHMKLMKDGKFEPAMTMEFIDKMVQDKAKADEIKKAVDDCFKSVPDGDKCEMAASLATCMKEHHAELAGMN
assay_name: biochemical
Assay type: binding
test_context: ligand concentration 16 (unit not given), replicate column 2 of 3
// return just the number, without any unit appended

Answered examples (8):
Cc1cc(C(C)(C)C)c(O)c(C(C)(C)C)c1 | 12493
CCCCCCCCCCCCCCCC | 10448
CC(=O)c1ccccc1 | 14300
C=C(C)C1CC=C(C)CC1 (single isomer, unassigned; (+)) [(+)-limonene] | 13445
CCCCCCCC | 11955
O=Cc1ccccc1 | 12546
COC(=O)c1ccccc1 | 13659
CCCCCCCCCCC | 12273

The compound listed as `O=C(c1ccccc1)c1ccccc1` has a reported Fluorescence competitive binding assay, OBP2 (raw fluorescence reading) of 11767

Record `C[C@@H]1CC[C@H]2C(C)(C)[C@H]3C[C@@]12CC[C@@]3(C)O` , field Fluorescence competitive binding assay, OBP2 (raw fluorescence reading): 21773

Form field Fluorescence competitive binding assay, OBP2 (raw fluorescence reading), entry `CCCCCCCCCCCCCCCCCCC` : 23043

###

experimental_system: SfurOBP3 (Sogatella furcifera)
Sequence (V5T818 entry or part of it): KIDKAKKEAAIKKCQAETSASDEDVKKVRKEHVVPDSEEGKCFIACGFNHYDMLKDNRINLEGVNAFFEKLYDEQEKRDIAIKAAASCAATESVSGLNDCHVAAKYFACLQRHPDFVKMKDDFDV
endpoint_label: pKd
Hey, just a heads up that pKd is the negative log base 10 of the concentration in molar.

Measured pKd (SfurOBP3 (Sogatella furcifera)), entry `c1ccc(Nc2cccc3ccccc23)cc1` : 5.62

###

experimental_system: SfurOBP2 (Sogatella furcifera, UniProt V5T759)
assay_name: biochemical
Format: binding
test_context: ligand concentration 6 (unit not given), replicate column 3 of 3
Experimental: Thirty-six rice odorants ([He et al., 2014]; [Wang et al., 2017]) and 1-N-phenyl-naphthylamine (1-NPN) were purchased from Sigma-Aldrich (St Louis, MO, USA). […] Fluorescence competitive binding assays were performed on Tecan Spark 10M (Tecan Group Ltd., Männedorf, Switzerland) with the F96 Black ELIAS Plate (Sangon) ([Khuhro et al., 2017]; [Liu et al., 2017]). The solutions were excited at 337 nm and emission spectra were recorded between 390 and 490 nm. […]
endpoint_label: Fluorescence competitive binding assay, OBP2 (raw fluorescence reading)

Some entries whose results are on file:
C=C1CC/C=C(\C)CC[C@@H]2[C@@H]1CC2(C)C | 13738
COC(=O)c1ccccc1 | 20363
CC(=O)c1ccccc1 | 18066
CCCCCCCCC=O | 22119
CCCCCCCCCCCCCCCC | 14976

For record `C[C@@H]1CC[C@H]2C(C)(C)[C@H]3C[C@@]12CC[C@@]3(C)O` the listed Fluorescence competitive binding assay, OBP2 (raw fluorescence reading) is 25579

For CC(C)COC(=O)CCCCC(=O)OCC(C)C [DA(diisobutyl adipate)] the compound record lists Fluorescence competitive binding assay, OBP2 (raw fluorescence reading) as 18707

Noted for `Cc1ccc(C(C)C)cc1` : its Fluorescence competitive binding assay, OBP2 (raw fluorescence reading) reads 16845

Please fill in: Fluorescence competitive binding assay, OBP2 (raw fluorescence reading) reported for `CCCCCCC=CCO` = 24096

Recorded values, source paper PMC6409085.
